Test system: 2019-nCoV (COVID-19)
Assay: Inhibitory effect against 2019-nCoV (COVID-19) viruses in Huh 7 cell model, viral RNA by qRT-PCR
Format: cell-based
Details: Severe acute respiratory syndrome coronavirus 2; Huh 7 cells, viral RNA copies in supernatant, 48 h
pEC50: −log10 of the molar value.
measureName: pEC50

CCC(CC)COC(=O)[C@H](C)N[P@](=O)(OC[C@H]1O[C@@](C#N)(c2ccc3c(N)ncnn23)[C@H](O)[C@@H]1O)Oc1ccccc1 [Remdesivir, reference compound] = 5.82
CC(C)OC(=O)[C@H](C)NP(=O)(OCC1(N=[N+]=[N-])OC(n2ccc(N)nc2=O)C(F)C1O)Oc1ccccc1 (some centres unmarked) = 5.49
